Catalogue of activity coefficient values
# assay.notes: activity coefficient (dimensionless); of the first substance listed, at infinite dilution; xn = mol fraction of the nth substance listed
# test.conditions: 348.15 K; 101.33 kPa; Liquid; Chromatography; x1 = 0

| compound | activity coefficient |
| --- | --- |
| C1CCCCCC1 [cycloheptane] + CC[N+](C)(CC)CCOC.O=S(=O)([N-]S(=O)(=O)C(F)(F)F)C(F)(F)F | 11.8 |
| C#CCCCCCC [1-octyne] + CC[N+](C)(CC)CCOC.O=S(=O)([N-]S(=O)(=O)C(F)(F)F)C(F)(F)F | 6.11 |
| C1CCCC1 [cyclopentane] + CC[N+](C)(CC)CCOC.O=S(=O)([N-]S(=O)(=O)C(F)(F)F)C(F)(F)F | 6.12 |
| C=CCCCCCC [oct-1-ene] + CC[N+](C)(CC)CCOC.O=S(=O)([N-]S(=O)(=O)C(F)(F)F)C(F)(F)F | 16.2 |
| CCCOCCC [dipropyl ether] + CC[N+](C)(CC)CCOC.O=S(=O)([N-]S(=O)(=O)C(F)(F)F)C(F)(F)F | 6.25 |
| CCC(C)(C)C [2,2-dimethylbutane] + CC[N+](C)(CC)CCOC.O=S(=O)([N-]S(=O)(=O)C(F)(F)F)C(F)(F)F | 12.5 |
| CCCC(=O)CC [3-hexanone] + CC[N+](C)(CC)CCOC.O=S(=O)([N-]S(=O)(=O)C(F)(F)F)C(F)(F)F | 1.24 |
| CC1CCCCC1 [methylcyclohexane] + CC[N+](C)(CC)CCOC.O=S(=O)([N-]S(=O)(=O)C(F)(F)F)C(F)(F)F | 12 |
| CC(C)O [propan-2-ol] + CC[N+](C)(CC)CCOC.O=S(=O)([N-]S(=O)(=O)C(F)(F)F)C(F)(F)F | 1.56 |
| CCCCCCCC [octane] + CC[N+](C)(CC)CCOC.O=S(=O)([N-]S(=O)(=O)C(F)(F)F)C(F)(F)F | 29.5 |
| c1ccsc1 [thiophene] + CC[N+](C)(CC)CCOC.O=S(=O)([N-]S(=O)(=O)C(F)(F)F)C(F)(F)F | 0.937 |
| C1CCOC1 [tetrahydrofuran] + CC[N+](C)(CC)CCOC.O=S(=O)([N-]S(=O)(=O)C(F)(F)F)C(F)(F)F | 0.862 |
| CC#N [acetonitrile] + CC[N+](C)(CC)CCOC.O=S(=O)([N-]S(=O)(=O)C(F)(F)F)C(F)(F)F | 0.49 |
| C1=CCCCC1 [cyclohexene] + CC[N+](C)(CC)CCOC.O=S(=O)([N-]S(=O)(=O)C(F)(F)F)C(F)(F)F | 5.16 |
| C1CCCCC1 [cyclohexane] + CC[N+](C)(CC)CCOC.O=S(=O)([N-]S(=O)(=O)C(F)(F)F)C(F)(F)F | 8.74 |
| C=CCCCCCCCC [1-decene] + CC[N+](C)(CC)CCOC.O=S(=O)([N-]S(=O)(=O)C(F)(F)F)C(F)(F)F | 32.2 |
| CCCCO [butan-1-ol] + CC[N+](C)(CC)CCOC.O=S(=O)([N-]S(=O)(=O)C(F)(F)F)C(F)(F)F | 2.18 |
| Cc1ccccc1 [toluene] + CC[N+](C)(CC)CCOC.O=S(=O)([N-]S(=O)(=O)C(F)(F)F)C(F)(F)F | 1.52 |
| O [water] + CC[N+](C)(CC)CCOC.O=S(=O)([N-]S(=O)(=O)C(F)(F)F)C(F)(F)F | 1.46 |
